# Tested on: HCT-15
Give measured GI50 for each item. Keep answers brief.

[Q] I am curious: what GI50 value has been reported for CC12CC3c4ccccc4CN1C3(c1ccccc1)OC2=O (stereo not drawn) ?
[A] > 100 µM

[Q] I am curious: what GI50 value has been reported for C=C[C@@]1(C)CC[C@@H]2[C@@]3(C1)O[C@H]3CC1[C@](C)(C(=O)OC)CCC[C@@]12C (stereo partly drawn) ?
[A] 19.5 µM

[Q] I am curious: what GI50 value has been reported for CCN(CC)CCNC(=O)c1cc2cc(NC(=O)c3cc4cc(N)ccc4[nH]3)ccc2[nH]1 ?
[A] > 100 µM

[Q] I am curious: what GI50 value has been reported for CCCCCC(CO)C(O)(C(F)(F)F)C(F)(F)F (stereo not drawn) ?
[A] > 10 µM

[Q] I am curious: what GI50 value has been reported for O=C(CSCC(=O)N/N=C/c1ccc2c(c1)OCO2)N/N=C/c1ccc2c(c1)OCO2 ?
[A] > 100 µM

[Q] I am curious: what GI50 value has been reported for CC(C)(C)CC(C)(C)c1cc2c(O)c(c1)Cc1cc(C(C)(C)CC(C)(C)C)cc(c1O)Cc1cc(C(C)(C)CC(C)(C)C)cc(c1O)Cc1cc(C(C)(C)CC(C)(C)C)cc(c1O)Cc1cc(C(C)(C)CC(C)(C)C)cc(c1O)Cc1cc(C(C)(C)CC(C)(C)C)cc(c1O)Cc1cc(C(C)(C)CC(C)(C)C)cc(c1O)Cc1cc(C(C)(C)CC(C)(C)C)cc(c1O)C2 ?
[A] > 100 µM

[Q] I am curious: what GI50 value has been reported for COc1cc2c(cc1OC)-c1c(cnn1C1OC(COC(C)=O)C(OC(C)=O)C(OC(C)=O)C1OC(C)=O)CC2 (stereo not drawn) ?
[A] > 100 µM

[Q] I am curious: what GI50 value has been reported for O=C(CN1C(=O)c2ccccc2C1=O)NC1(C(=O)O)CCCC1 ?
[A] > 100 µM

[Q] I am curious: what GI50 value has been reported for Cc1c(C)c(S(=O)(=O)N(CCCCCCN)OCCCN)c(C)c2c1OC(C)(C)CC2 ?
[A] 15.1 µM

[Q] I am curious: what GI50 value has been reported for CCO/C=N/C1=C(C#N)SC2=N/C(=C\c3ccccc3)C(=O)N21 ?
[A] > 100 µM

[Q] I am curious: what GI50 value has been reported for C=C1OC(=O)[C@]2([C@@H](/C=C/C)C=CC(=O)[C@H]2O)[C@@H]1O ?
[A] > 100 µM

[Q] I am curious: what GI50 value has been reported for CCCCCCCCCCCC1=C(O)C(=O)C=C(O)C1=O ?
[A] 5.11 µM

[Q] I am curious: what GI50 value has been reported for Cc1cccc(C2ON=C(c3ccccc3)N2C23CC4CC(CC(C4)C2)C3)c1 (stereo not drawn) ?
[A] > 10 µM

[Q] I am curious: what GI50 value has been reported for O=C(/C=C/c1ccc(O)cc1)c1cc(O)cc(O)c1 ?
[A] 5.4 µM

[Q] I am curious: what GI50 value has been reported for c1ccc(/N=c2/sc3ccccc3s/c2=N/c2ccccc2)cc1 ?
[A] 1.75 µM

[Q] I am curious: what GI50 value has been reported for CC(=O)N1C(Nc2cnc3ccccc3c2)CCN1c1ccccc1 (stereo not drawn) ?
[A] > 10 µM

[Q] I am curious: what GI50 value has been reported for CCCc1cc(O)c2c(C)c3[nH]c4ccc(Cl)cc4c3c(C)c2n1 ?
[A] 1.69 µM

[Q] I am curious: what GI50 value has been reported for CC(=O)NCCCCCCNC(C)=O [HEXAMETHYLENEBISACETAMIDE] ?
[A] 5530 µM

---

# Tested on: EKVX
# experiment summary: NCI tumour cell line growth inhibition, 48 h
Calls of active or inactive are those of the source. Cut-off read from the data, not from the text of the source: active = GI50 up to about 1.1 µM and inactive = higher.
readout name: GI50

[Q] I am curious: what GI50 value has been reported for Cc1cc(O)c(O)c(Oc2cc(C)cc(O)c2O)c1 ?
[A] 16 µM (inactive)

[Q] I am curious: what GI50 value has been reported for Cc1cc2c(c(C)c1O)C(C)(C)CN2C(=O)C(C)(C)C ?
[A] > 100 µM (inactive)

[Q] I am curious: what GI50 value has been reported for CC1(C)CC2CC(CC(C)(C)C2=O)C1=O ?
[A] > 100 µM (inactive)

[Q] I am curious: what GI50 value has been reported for COC12OCCN(C)C1=CC(=O)C1(C)N=NCC12 (stereo not given) ?
[A] > 100 µM (inactive)

[Q] I am curious: what GI50 value has been reported for COc1ccc2nc3cc([N+](=O)[O-])ccc3c(NNc3ccc([N+](=O)[O-])cc3)c2c1 ?
[A] 44.1 µM (inactive)

[Q] I am curious: what GI50 value has been reported for Cc1c(O)c(OC2OC(CO)C(O)C(O)C2O)cc2c1C=C[C@@H]1[C@@]2(C)C(=O)C[C@]2(C)[C@@H]([C@@](C)(O)C(O)/C=C/C(C)(C)O)[C@H](O)C[C@@]12C (stereo not given in full) ?
[A] > 100 µM (inactive)

[Q] I am curious: what GI50 value has been reported for CCn1ncc2c1nc(-c1ccccc1)c[n+]2[O-] ?
[A] > 100 µM (inactive)

[Q] I am curious: what GI50 value has been reported for COc1ccc([C@H]2CC(=O)N3CCCC3N2)cc1 (stereo not given in full) ?
[A] > 100 µM (inactive)

[Q] I am curious: what GI50 value has been reported for O=C1C(c2c(O)[nH]c3ccc(S(=O)(=O)O)cc23)=Nc2ccccc21 ?
[A] > 100 µM (inactive)

[Q] I am curious: what GI50 value has been reported for Cc1ccc(S(=O)(=O)NC(=O)C#CCOC2CCCCO2)cc1 (stereo not given) ?
[A] > 100 µM (inactive)

---

# System: RPMI-8226
# experiment summary: NCI tumour cell line growth inhibition, 48 h
The source made the active and inactive calls. No stated cut-off is given here; in the data, active = GI50 up to about 1.1 µM and inactive = higher.
Form entry, call: pick from Y (active), N (inactive)

[Q] Which outcome was assigned to COc1cc(C2c3cc4c(cc3[C@@H](Nc3ccc(N5CCOCC5)cc3)C3COC(=O)[C@H]23)OCO4)cc(OC)c1O (stereo partly drawn) in this test?
[A] Y

[Q] Which outcome was assigned to COCOc1ccc(C(=O)C(C)c2ccc(OCOC)cc2OCOC)c(O)c1 (stereo not drawn) in this test?
[A] N

[Q] Which outcome was assigned to CC(C)(C)c1cc2c(OP(c3ccccc3)c3ccccc3)c(c1)Cc1cc(C(C)(C)C)cc(c1OP(c1ccccc1)c1ccccc1)Cc1cc(C(C)(C)C)cc(c1OP(c1ccccc1)c1ccccc1)Cc1cc(C(C)(C)C)cc(c1OP(c1ccccc1)c1ccccc1)C2 in this test?
[A] N

[Q] Which outcome was assigned to CCC1(COC(NC(=O)c2ccccc2)(C(F)(F)F)C(F)(F)F)COC1 in this test?
[A] N

[Q] Which outcome was assigned to CC(=O)CC1CCC(=O)/C=C/C(=O)OC(CC(C)=O)CCC(=O)/C=C/C(=O)O1 (stereo not drawn) in this test?
[A] N

[Q] Which outcome was assigned to COc1cc(OCc2ccc3nc(-c4ccccc4)c(Cl)nc3c2)cc(OC)c1OC in this test?
[A] N

[Q] Which outcome was assigned to Cc1cc(S(=O)(=O)N/C(=C(\C#N)C(=O)c2ccc(Cl)cc2)[n+]2ccc(N(C)C)cc2)c([S-])cc1Cl in this test?
[A] N

[Q] Which outcome was assigned to O=C1C(C(O)(C(F)(F)F)C(F)(F)F)CCC1C(O)(C(F)(F)F)C(F)(F)F (stereo not drawn) in this test?
[A] Y

---

# Tested on: KM12
# experiment summary: NCI tumour cell line growth inhibition, 48 h
Active and inactive are the calls of the source. Cut-off read from the data, not from the text of the source: active = GI50 up to about 1.1 µM and inactive = higher.
Give measured GI50 for each item. Keep answers brief.

[Q] I am curious: what GI50 value has been reported for Clc1ccc(OCc2nnc(CCCCCCCCc3nnc(COc4ccc(Cl)cc4Cl)n3Nc3ccccc3)n2Nc2ccccc2)c(Cl)c1 ?
[A] 10.7 µM (inactive)

[Q] I am curious: what GI50 value has been reported for O=C1c2cccc([N+](=O)[O-])c2C(=O)N1c1ncn[nH]1 ?
[A] > 100 µM (inactive)

[Q] I am curious: what GI50 value has been reported for CCCCOP1(=O)C=CC(Cl)=C(C)C1 (configuration not stated) ?
[A] 21.5 µM (inactive)

[Q] I am curious: what GI50 value has been reported for Cc1c(OCc2ccccc2)c(=O)ccn1CCc1c[nH]c2ccccc12 ?
[A] 33.7 µM (inactive)

[Q] I am curious: what GI50 value has been reported for Cc1cccc(C2ON=C(c3ccccc3)N2C23CC4CC(CC(C4)C2)C3)c1 (configuration not stated) ?
[A] > 10 µM (inactive)

[Q] I am curious: what GI50 value has been reported for COc1cc(C)cc2c1C(=O)C(NC(C)=O)=CC2=O ?
[A] > 100 µM (inactive)

[Q] I am curious: what GI50 value has been reported for Cc1cc(S(=O)(=O)N/C(=C(\C#N)C(=O)c2ccc(Cl)cc2)[n+]2ccc(N(C)C)cc2)c([S-])cc1Cl ?
[A] > 100 µM (inactive)

[Q] I am curious: what GI50 value has been reported for COc1ccc2nc3cc([N+](=O)[O-])ccc3c(NNc3ccc([N+](=O)[O-])cc3)c2c1 ?
[A] 24.5 µM (inactive)

[Q] I am curious: what GI50 value has been reported for O=C(NCCCCl)c1c(O)c2ccccc2[nH]c1=O ?
[A] > 100 µM (inactive)

[Q] I am curious: what GI50 value has been reported for COC(=O)c1c(C#N)[nH]c(-c2ccsc2)c1C(=O)OC ?
[A] > 100 µM (inactive)

[Q] I am curious: what GI50 value has been reported for COc1ccc2c(c1)[n+]([O-])c(/C(C)=N/NC(=O)c1ccccc1O)c(C)[n+]2[O-] ?
[A] > 100 µM (inactive)

[Q] I am curious: what GI50 value has been reported for CC1=C/C(=N\N(C)C)C(C(O)(C(F)(F)F)C(F)(F)F)C(C)(C)C1 (configuration not stated) ?
[A] > 100 µM (inactive)

[Q] I am curious: what GI50 value has been reported for Cc1ccc(/C=N/NC2=NCCN2)s1 ?
[A] > 100 µM (inactive)

[Q] I am curious: what GI50 value has been reported for CCN(CC)Cc1nc(C2CCC([N+](=O)[O-])O2)no1 (configuration not stated) ?
[A] 26.5 µM (inactive)

[Q] I am curious: what GI50 value has been reported for O=C(O)Cc1c(-c2ccc([N+](=O)[O-])cc2)c(=O)oc2cc(O)ccc12 ?
[A] 26.9 µM (inactive)

[Q] I am curious: what GI50 value has been reported for CCCCCC(CO)C(O)(C(F)(F)F)C(F)(F)F (configuration not stated) ?
[A] > 10 µM (inactive)

[Q] I am curious: what GI50 value has been reported for Cc1nnc(N)nc1/C=C/c1c(O)ccc2ccccc12 ?
[A] 34.5 µM (inactive)

[Q] I am curious: what GI50 value has been reported for COC1(C2c3ccccc3CCN2C(=O)OC(C)(C)C)C(=O)C(c2ccccc2)=C1N(C)C (configuration not stated) ?
[A] 34.4 µM (inactive)

[Q] I am curious: what GI50 value has been reported for Oc1ccc(NCc2cc(O)ccc2O)cc1 ?
[A] 21.7 µM (inactive)

[Q] I am curious: what GI50 value has been reported for O=C(O)C1=C(C(=O)O)N(c2ccncc2)C(c2ccco2)=CC1c1ccccc1[N+](=O)[O-] (configuration not stated) ?
[A] 1.62 µM (inactive)

[Q] I am curious: what GI50 value has been reported for O=C(CCc1ccccc1CO)NCCc1ccccc1 ?
[A] > 100 µM (inactive)

[Q] I am curious: what GI50 value has been reported for COc1ccc2c(=O)c3ccoc3n(CC=C(C)C)c2c1 [ACROPHYLLINE] ?
[A] 45.9 µM (inactive)
